# targetSystem: T1, human CD28, full-length, expressed on transfected Expi293 cells (human, UniProt P10747 19-220)
# T1 construct: whole, on cells
# protocol: flow cytometry, 100 nM, Expi293 cells with human CD28
endpointName: MFI (MFI)
Just the number in MFI, nothing appended.

Ask | State its MFI for this binder: variant ICOSL IgV-Fc fusion N52T/N57H/Q100S (Fc fusion) DTQEKEVRAMVGSDVELSCACPEGSRFDLNDVYVYWQTSESKTVVTYHIPQTSSLEHVDSRYRNRALMSPAGMLRGDFSLRLFNVTPQDEQKFHCLVLSSSLGFQEVLSVEVTLHVAANFSVGSGGGGSEPKSSDKTHTCPPCPAPEAEGAPSVFLFPPKPKDTLMISRTPEVTCVVVDVSHEDPEVKFNWYVDGVEVHNAKTKPREEQYNSTYRVVSVLTVLHQDWLNGKEYKCKVSNKALPAPIEKTISKAKGQPREPQVYTLPPSREEMTKNQVSLTCLVKGFYPSDIAVEWESNGQPENNYKTTPPVLDSDGSFFLYSKLTVDKSRWQQGNVFSCSVMHEALHNHYTQKSLSLSPG
Reply | 143000

Ask | Give recorded MFI. variant ICOSL IgV-Fc fusion N52G/Q100A (Fc fusion) DTQEKEVRAMVGSDVELSCACPEGSRFDLNDVYVYWQTSESKTVVTYHIPQGSSLENVDSRYRNRALMSPAGMLRGDFSLRLFNVTPQDEQKFHCLVLSASLGFQEVLSVEVTLHVAANFSVGSGGGGSEPKSSDKTHTCPPCPAPEAEGAPSVFLFPPKPKDTLMISRTPEVTCVVVDVSHEDPEVKFNWYVDGVEVHNAKTKPREEQYNSTYRVVSVLTVLHQDWLNGKEYKCKVSNKALPAPIEKTISKAKGQPREPQVYTLPPSREEMTKNQVSLTCLVKGFYPSDIAVEWESNGQPENNYKTTPPVLDSDGSFFLYSKLTVDKSRWQQGNVFSCSVMHEALHNHYTQKSLSLSPG
Reply | 98700

Ask | For the binder variant ICOSL IgV-Fc fusion N52R/N57W/Q100K (Fc fusion) DTQEKEVRAMVGSDVELSCACPEGSRFDLNDVYVYWQTSESKTVVTYHIPQRSSLEWVDSRYRNRALMSPAGMLRGDFSLRLFNVTPQDEQKFHCLVLSKSLGFQEVLSVEVTLHVAANFSVGSGGGGSEPKSSDKTHTCPPCPAPEAEGAPSVFLFPPKPKDTLMISRTPEVTCVVVDVSHEDPEVKFNWYVDGVEVHNAKTKPREEQYNSTYRVVSVLTVLHQDWLNGKEYKCKVSNKALPAPIEKTISKAKGQPREPQVYTLPPSREEMTKNQVSLTCLVKGFYPSDIAVEWESNGQPENNYKTTPPVLDSDGSFFLYSKLTVDKSRWQQGNVFSCSVMHEALHNHYTQKSLSLSPG , give its measured MFI value.
Reply | 131000

Ask | Fill in reported MFI for this entry: variant ICOSL IgV-Fc fusion N52S/N57M/Q100S (Fc fusion) DTQEKEVRAMVGSDVELSCACPEGSRFDLNDVYVYWQTSESKTVVTYHIPQSSSLEMVDSRYRNRALMSPAGMLRGDFSLRLFNVTPQDEQKFHCLVLSSSLGFQEVLSVEVTLHVAANFSVGSGGGGSEPKSSDKTHTCPPCPAPEAEGAPSVFLFPPKPKDTLMISRTPEVTCVVVDVSHEDPEVKFNWYVDGVEVHNAKTKPREEQYNSTYRVVSVLTVLHQDWLNGKEYKCKVSNKALPAPIEKTISKAKGQPREPQVYTLPPSREEMTKNQVSLTCLVKGFYPSDIAVEWESNGQPENNYKTTPPVLDSDGSFFLYSKLTVDKSRWQQGNVFSCSVMHEALHNHYTQKSLSLSPG
Reply | 134000

Ask | Tell me measured MFI for variant ICOSL IgV-Fc fusion N52T/N57H/Q100A (Fc fusion) DTQEKEVRAMVGSDVELSCACPEGSRFDLNDVYVYWQTSESKTVVTYHIPQTSSLEHVDSRYRNRALMSPAGMLRGDFSLRLFNVTPQDEQKFHCLVLSASLGFQEVLSVEVTLHVAANFSVGSGGGGSEPKSSDKTHTCPPCPAPEAEGAPSVFLFPPKPKDTLMISRTPEVTCVVVDVSHEDPEVKFNWYVDGVEVHNAKTKPREEQYNSTYRVVSVLTVLHQDWLNGKEYKCKVSNKALPAPIEKTISKAKGQPREPQVYTLPPSREEMTKNQVSLTCLVKGFYPSDIAVEWESNGQPENNYKTTPPVLDSDGSFFLYSKLTVDKSRWQQGNVFSCSVMHEALHNHYTQKSLSLSPG please.
Reply | 113000
